Each item that follows carries a reported Fold Induction Average, Z3V1 Assay 33 μM.
targetOrSystem: Bombyx mori EcR (VP16-BmEcR, CVBE) (Bombyx mori, UniProt P49881)
Construct: expressed in transfected cells
Sequence (P49881 86-606): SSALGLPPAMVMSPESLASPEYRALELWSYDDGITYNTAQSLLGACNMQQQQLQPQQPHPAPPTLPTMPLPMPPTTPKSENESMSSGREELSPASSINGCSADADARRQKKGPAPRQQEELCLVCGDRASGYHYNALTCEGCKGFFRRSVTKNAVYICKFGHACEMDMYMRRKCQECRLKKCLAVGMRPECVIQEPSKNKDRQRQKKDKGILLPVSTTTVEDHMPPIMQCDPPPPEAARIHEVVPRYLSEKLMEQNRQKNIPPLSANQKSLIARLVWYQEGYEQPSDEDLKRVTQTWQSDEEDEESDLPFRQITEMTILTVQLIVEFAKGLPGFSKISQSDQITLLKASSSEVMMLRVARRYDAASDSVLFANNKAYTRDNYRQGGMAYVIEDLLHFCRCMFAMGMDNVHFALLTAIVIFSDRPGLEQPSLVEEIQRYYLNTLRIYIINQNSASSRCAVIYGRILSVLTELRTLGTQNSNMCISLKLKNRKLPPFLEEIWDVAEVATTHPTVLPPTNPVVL
measurementNotes: Z3 assay (HEK-293 clone Z3 with CVBE and 6x EcRE LacZ, β-galactosidase reporter)
Format: cell-based
studyConditions: 48 h, average of two wells

>  <molecule>
Cc1ccccc1C(=O)N1c2ccc(F)cc2C(Nc2ccc(F)cc2)CC1C (stereo not drawn)

>  <targetOrSystem>
Bombyx mori EcR (VP16-BmEcR, CVBE) (Bombyx mori, UniProt P49881)

>  <Fold Induction Average, Z3V1 Assay 33 μM>
8 fold

$$$$
>  <molecule>
CC1CC(Nc2ccc(F)cc2)c2cc(F)ccc2N1C(=O)c1ccc2c(c1)OCO2 (stereo not drawn)

>  <targetOrSystem>
Bombyx mori EcR (VP16-BmEcR, CVBE) (Bombyx mori, UniProt P49881)

>  <Fold Induction Average, Z3V1 Assay 33 μM>
10 fold

$$$$
>  <molecule>
COc1cccc(C(=O)N2c3ccccc3[C@@H](Nc3ccccc3)C[C@@H]2C)c1 (relative stereo)

>  <targetOrSystem>
Bombyx mori EcR (VP16-BmEcR, CVBE) (Bombyx mori, UniProt P49881)

>  <Fold Induction Average, Z3V1 Assay 33 μM>
1 fold

$$$$
>  <molecule>
Cc1ccc(C(=O)N2c3ccccc3C(Nc3ccccc3)CC2C)cc1 (stereo not drawn) [Compound I-96]

>  <targetOrSystem>
Bombyx mori EcR (VP16-BmEcR, CVBE) (Bombyx mori, UniProt P49881)

>  <Fold Induction Average, Z3V1 Assay 33 μM>
1 fold

$$$$
>  <molecule>
CC1CC(Nc2ccc(F)cc2)c2cc(F)ccc2N1C(=O)c1ccccc1F (stereo not drawn)

>  <targetOrSystem>
Bombyx mori EcR (VP16-BmEcR, CVBE) (Bombyx mori, UniProt P49881)

>  <Fold Induction Average, Z3V1 Assay 33 μM>
10 fold

$$$$
>  <molecule>
CC(=O)N1c2ccccc2C(N(C(=O)c2ccccc2F)c2ccccc2)CC1C (stereo not drawn)

>  <targetOrSystem>
Bombyx mori EcR (VP16-BmEcR, CVBE) (Bombyx mori, UniProt P49881)

>  <Fold Induction Average, Z3V1 Assay 33 μM>
1 fold

$$$$
>  <molecule>
CCc1ccc(C(=O)N2c3ccccc3C(Nc3ccccc3)CC2C)cc1 (stereo not drawn)

>  <targetOrSystem>
Bombyx mori EcR (VP16-BmEcR, CVBE) (Bombyx mori, UniProt P49881)

>  <Fold Induction Average, Z3V1 Assay 33 μM>
43 fold

$$$$
>  <molecule>
Cc1ccc(C(=O)N2c3ccccc3C(Nc3ccc(Cl)cc3)CC2C)cc1 (mixture of isomers)

>  <targetOrSystem>
Bombyx mori EcR (VP16-BmEcR, CVBE) (Bombyx mori, UniProt P49881)

>  <Fold Induction Average, Z3V1 Assay 33 μM>
3 fold

$$$$
>  <molecule>
CC(=O)N(c1ccccc1)C1CC(C)N(C(=O)C=Cc2ccccc2)c2ccccc21 (stereo not drawn)

>  <targetOrSystem>
Bombyx mori EcR (VP16-BmEcR, CVBE) (Bombyx mori, UniProt P49881)

>  <Fold Induction Average, Z3V1 Assay 33 μM>
1 fold

$$$$
>  <molecule>
Cc1ccc(N[C@H]2C[C@H](C)N(C(=O)c3cccc(C(F)(F)F)c3)c3ccc(C)cc32)cc1 (relative stereo)

>  <targetOrSystem>
Bombyx mori EcR (VP16-BmEcR, CVBE) (Bombyx mori, UniProt P49881)

>  <Fold Induction Average, Z3V1 Assay 33 μM>
2 fold

$$$$
>  <molecule>
Cc1ccc(C(=O)N2c3ccccc3[C@@H](Nc3ccccc3)C[C@@H]2C)cc1F (relative stereo)

>  <targetOrSystem>
Bombyx mori EcR (VP16-BmEcR, CVBE) (Bombyx mori, UniProt P49881)

>  <Fold Induction Average, Z3V1 Assay 33 μM>
27 fold

$$$$
>  <molecule>
Cc1ccc(N[C@@H]2C[C@H](C)N(C(=O)c3ccc(C)c(F)c3)c3ccc(C)cc32)cc1 (relative stereo)

>  <targetOrSystem>
Bombyx mori EcR (VP16-BmEcR, CVBE) (Bombyx mori, UniProt P49881)

>  <Fold Induction Average, Z3V1 Assay 33 μM>
1 fold

$$$$
>  <molecule>
Cc1ccc(NC2CC(C)N(C(=O)c3ccnc(Cl)c3)c3ccc(C)cc32)cc1 (stereo not drawn)

>  <targetOrSystem>
Bombyx mori EcR (VP16-BmEcR, CVBE) (Bombyx mori, UniProt P49881)

>  <Fold Induction Average, Z3V1 Assay 33 μM>
16 fold

$$$$
>  <molecule>
Cc1ccc(N[C@H]2C[C@H](C)N(C(=O)c3ccccc3C(F)(F)F)c3ccc(C)cc32)cc1 (relative stereo)

>  <targetOrSystem>
Bombyx mori EcR (VP16-BmEcR, CVBE) (Bombyx mori, UniProt P49881)

>  <Fold Induction Average, Z3V1 Assay 33 μM>
1 fold

$$$$
>  <molecule>
CCCc1ccc(C(=O)N2c3ccccc3C(Nc3ccccc3)CC2C)cc1 (stereo not drawn)

>  <targetOrSystem>
Bombyx mori EcR (VP16-BmEcR, CVBE) (Bombyx mori, UniProt P49881)

>  <Fold Induction Average, Z3V1 Assay 33 μM>
3 fold

$$$$
>  <molecule>
C[C@H]1C[C@H](Nc2ccc(F)cc2)c2cc(F)ccc2N1C(=O)c1ccc(Cl)cc1 (relative stereo)

>  <targetOrSystem>
Bombyx mori EcR (VP16-BmEcR, CVBE) (Bombyx mori, UniProt P49881)

>  <Fold Induction Average, Z3V1 Assay 33 μM>
82 fold

$$$$
>  <molecule>
CC1CC(N(C(=O)c2cccc(Br)c2)c2ccccc2)c2ccccc2N1C(=O)c1cccc(O)c1 (stereo not drawn)

>  <targetOrSystem>
Bombyx mori EcR (VP16-BmEcR, CVBE) (Bombyx mori, UniProt P49881)

>  <Fold Induction Average, Z3V1 Assay 33 μM>
1 fold

$$$$
>  <molecule>
Cc1ccc(NC2CC(C)N(C(=O)c3ccc4c(c3)OCO4)c3ccc(C)cc32)cc1 (stereo not drawn)

>  <targetOrSystem>
Bombyx mori EcR (VP16-BmEcR, CVBE) (Bombyx mori, UniProt P49881)

>  <Fold Induction Average, Z3V1 Assay 33 μM>
1 fold

$$$$
